B1: glmS ribozyme (parent)
chain: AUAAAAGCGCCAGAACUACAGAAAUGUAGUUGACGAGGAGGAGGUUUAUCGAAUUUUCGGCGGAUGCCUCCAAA

Variants of: B1
protocol notes: self-cleavage kobs at 2500 uM GlcN6P; higher = faster cleavage; RNA array
run conditions: with glucosamine-6-phosphate
Fewer inactive variants are shown than the library holds.
recorded endpoint: self-cleavage kobs at 2500 uM GlcN6P (s⁻¹)

> print(dat)
                               sequence.text  measurement.units  censor.symbol  value.observed
 1  AUAAAAGCGCCAGAACUACAGAAAUGUAGUUGACGAGGAGUAGGUUUAUCGGAUUUUCGGCGGAUGCCUCCAAA [G41U A52G]                s⁻¹              =        0.000113
 2  AUAAAAGCGCCAGGACUACAGAAAUGUAGUUGACGAGGAGGAGGUUUAUCGAACUUUCGGCGGAUGCGUCCAAA [A14G U54C C68G]                s⁻¹              =         7.7e-05
 3  AUAAACGCGCCCGAACUACAGAAAUGUAGUUGACGAGGCGGAGGUUUAUCGAAUUUUCGGCGGAUGUCUCCAAA [A6C A12C A39C C67U]                s⁻¹              <           1e-05
 4  AUAAAUGCGCCAGAACUACAGAAAUGUAGUUGACGAGGAGGAGGAUUAUCGACUUUUCGGCGGAUGCCUCCAAA [A6U U45A A53C]                s⁻¹              =        4.74e-05
 5  AUAAAAGCGCCAUAACUACAGAAAUGUAGUUGGCGAGGAGGAGGCUUAUCGAAUUUUCGGCGAAUGCCUCCAAA [G13U A33G U45C G63A]                s⁻¹              <           1e-05
 6  AUAAAAGCGGCAGAACUACAGAAAUGUAGUUGACGAGGAGGAGGUUGAUCAAAUUUUCGGCGGAUGCCUCCAAA [C10G U47G G51A]                s⁻¹              <           1e-05
 7  AUAAAAGCGCCAGAACUACAGAAAUGUAGUUGACGAGGAGGAGGUUUAUCGAAGUUUCGGUGGAUGCCUUCAAA [U54G C61U C70U]                s⁻¹              =        5.89e-05
 8  CUAAAAGCGCCAGAACUACAGAAAUGUAGUUGACGAGGAGGAGGUUUAUCGAAUUUUCGGCGGAUGCCUCCAAA [A1C]                s⁻¹              =          0.0128
 9  AUAAAAACUCCAGAACUACAGAAAUGUAGUUGCCGAGGAGGAGGUUGAUCGAAUUUUCGGCGGAUGCCUCCAAA [G7A G9U A33C U47G]                s⁻¹              <           1e-05
10  AUAAAAGCGCCAGAACUACAGAAAUGUAGCUGACGAGGAGGAGGUUUAUCGAAUUUUCGGCGGAAGCCUCCAAA [U30C U65A]                s⁻¹              =        3.76e-05
11  AUAAAAGCGCCAGAACUACAGAAAUGUAGUUGACGAGGAGGAGGUUUAUCGAUUUUUCGGCUGAUGCCUCCAAA [A53U G62U]                s⁻¹              <           1e-05
12  AUAAAAGCGCCAGAACUACAGAAAUGUAGUUGACGAGGUGGGGGUUUAUCGAAUUUUCGGCGGAUGCCUCCAAA [A39U A42G]                s⁻¹              =          0.0216
13  AUAAAAGUGACAGAACUACAGAAAUGUAGUUGACGAGGAGGAGGUUUAUGGAAUUUUCGGCGGAUGCCUCCAAA [C8U C10A C50G]                s⁻¹              =        8.56e-05
14  AUAAAAGCACCAUAACUACAGAAAUGUAGUUGACGAGGAGGAGGUUUAUCGAAUUUCCGGCGGAUGCCUCCAAA [G9A G13U U57C]                s⁻¹              <           1e-05
15  AUAAACGCGCCAGAACUACAGAAAUGUACUUGACGUGGAGGAGGUUUAUCGAAUUUUCGGUGGAUGCCUCCAAA [A6C G29C A36U C61U]                s⁻¹              <           1e-05
16  AUAAAAGCGCAAGAACUACAGAAAUGUAGUUGACGAGGAGGAGGAUUAUCGAAUUUUCGGCGGAUGCCUCCAAA [C11A U45A]                s⁻¹              =        0.000214
17  AUAAAAUCCCCAGAACUACAGAAAUGUAGUUGACGAGGAGGAGGUUAAUCGAAUUGUCUGCGGAUGCCUACAAA [G7U G9C U47A U56G G59U C70A]                s⁻¹              <           1e-05
18  AUAAAAGCGCCAGAACUACAGAAAUGUAGUUGCCGAGGAGGAGGUUUAUCGAAUUUUCGGCGGAUGCGUUCAAA [A33C C68G C70U]                s⁻¹              <           1e-05
19  AUAAAAGCGCCACAACUACAGAAAUGUAGUUGACGAUGAGGACGUUUAUCGAAUUUUCGGCGGAUGCCUCCAAA [G13C G37U G43C]                s⁻¹              <           1e-05
20  AUAAAAGCGCCAGAAGUACAGAAAUGUAGUUGACGAGGAUGAGGUUUAUCGAAUUUUGGGCGGAUGCCUCCAAA [C16G G40U C58G]                s⁻¹              <           1e-05
21  AUAAAAGCAGCAGAACUACAGAAAUGUAGUUGACGAGGAGGAGAUUUAUCGAAUUUUCGGCGGAUGCCUUCAAA [G9A C10G G44A C70U]                s⁻¹              <           1e-05
22  AUAAAAGCGCCAGAACUACAGAAAUGUAGUCGACGAGGAGGAGGUUUAUCGAAUUUUCGGCGGAUUCCUCCAAA [U31C G66U]                s⁻¹              =        0.000124
23  AUAAAAGCGCCAGUACUACAGAAAUGUAGUUGACGAGGAGGAGGUUUAUCGAAUUUUCGUCGGAUGCCUCCAAA [A14U G60U]                s⁻¹              <           1e-05
24  AUAAAAGCGCCCGAAUUACAGAAAUGUAGUUGACGAGGAAGAGGUUUAUCGAAUUUUCGGCGGAUGCCUCCAAA [A12C C16U G40A]                s⁻¹              =         0.00176
25  AUAAAAGCGCCUGAACUACAGAAAUGUAGUUGACGAGGAGGAGGUCUAUCGGGUUUUCGGCGGAUGCCUCCAAA [A12U U46C A52G A53G]                s⁻¹              =         0.00036
26  AUAAAAGCGCCAGAACUACAGAAAUGUAGUUGACGAGGUGGAGGUUUAUCGAAUUUUCGGCGGAUGCCUCCAAA [A39U]                s⁻¹              =           0.019
